Every entry's value here was drawn from PubChem BioAssay (NCI).

- Test system: SNB-19 CNS
- procedureText: NCI tumour cell line growth inhibition, 48 h

| molecule | TGI |
| --- | --- |
| Nc1ncnc2c1ccn2CC#CCO | > 100 µM |
| CC(C)C[C@H](NC(=O)[C@@H](Cc1ccccc1)n1ccc(Nc2ccccc2)cc1=O)B(O)O | > 100 µM |
| Cc1c2c(n3c(nc4ccccc43)c1C#N)N(c1ccc(F)cc1)CC2 | > 100 µM |
| Cc1n[nH]c(=O)n1/N=C/c1ccco1 | > 100 µM |
| O=C(c1ccccc1)c1ccc(N2C(=O)/C(=C/c3cccc(Oc4ccccc4)c3)N=C2c2ccccc2)c(N2C(=O)/C(=C/c3cccc(Oc4ccccc4)c3)N=C2c2ccccc2)c1 | > 100 µM |
| CO[P@@]1(=O)O[C@@H](c2ccccc2)[C@H](O)[C@@]1(O)c1ccccc1 | > 100 µM |
| O=C(O)C1=Cc2cccc3cccc(c23)C1=O | > 100 µM |
| OC1CC(O)O[C@H](c2ccccc2)C1 (stereo not given in full) | > 100 µM |
| COc1ccc(N=Nc2ccc(O)c(=O)cc2)cc1 | 51.6 µM |
| O=C(Nc1ccccc1)OCCN=c1c2ccccc2ccc2ccccc12 | 62.7 µM |

---

Below, each of the compounds is paired with its reported TGI value.
- Tested on: SK-OV-3 ovarian
- procedureText: NCI tumour cell line growth inhibition, 48 h

| compound | TGI |
| --- | --- |
| COC(C)=NCCC1=CCCCC1 | > 100 µM |
| CC1=CC2(C)C=C[C@@H]1C(=O)[C@@]1(C)CC[C@@](O)(C(C)C)[C@H]1CC2 | 54.6 µM |
| CNC(=O)/C=C/C1=CN2C(=O)c3ccc(C)c(O)c3NC(OC)C2C1 (stereo unspecified) | > 8.66 µM |
| CCN(N=O)C1C2(CCCC2)NC(=O)C12CCCC2 (stereo unspecified) | > 100 µM |
| O=C1c2cc3c(cc2[C@@H]2C(O)[C@H]4O[C@H]4C4CCN1C42)OCO3 (stereo partly specified) | > 37.5 µM |
| C1CSCCSCCSCCSCCS1 | > 100 µM |

---

Here, each record is paired with measured TGI data.
- System: DU-145 prostate
- procedureText: NCI tumour cell line growth inhibition, 48 h

| molecule | TGI |
| --- | --- |
| COc1ccc2c(c1)OCC1c3cc(OC)c4ccccc4c3OC21 (stereo not given) | > 100 µM |
| CC1(C)CC(=O)c2c(-c3ccc(Cl)cc3)c(C#N)c(=S)n(C3OC(CO)C(O)C(O)C3O)c2C1 (stereo not given) | > 100 µM |
| CC1(C)N=C(N)N=C(N)N1c1ccc(OCC(=O)Nc2ccc(S(=O)(=O)F)cc2Cl)c(Cl)c1 | > 100 µM |
| CC(C)n1cc(-c2ccc3c(c2)N(C)CC3)c2c(NS(=O)(=O)c3ccn(C)n3)ccnc21 | > 100 µM |
| O=C(Cc1cc(O)ccc1O)NO | > 100 µM |
| CC(=O)Oc1ccc(C2OC(c3ccc4ccccc4c3OC(C)=O)=NN2C(C)=O)c(OC(C)=O)c1 (stereo not given) | > 100 µM |
| C=C(C)COc1ccc2c(c1)CCC1C2CCC2(C)C(=O)/C(=N/O)CC12 (stereo not given) | 7.93 µM |
| COc1cc(-c2oc3c(OC)c(O)c(OC)c(O)c3c(=O)c2OC)cc(OC)c1OC | > 100 µM |
| CC(C)c1cnc(-c2cc(Cl)ccc2F)cc1Nc1ccncc1C(=O)NC(CO)CO | 42 µM |
| O=C(O)CN1C(=O)OC(c2ccccc2)C1=O (stereo not given) | > 100 µM |
